target: METTL3/METTL14 (Homo sapiens, UniProt Q86U44); test: METTL3-14 standard enzyme assay (3H-SAM flashplate scintillation); conditions: METTL3/METTL14 2.5 nM, RNA 100 nM, 3H-SAM 100 nM, 30 min
Sequence (Q86U44 whole entry, species assumed): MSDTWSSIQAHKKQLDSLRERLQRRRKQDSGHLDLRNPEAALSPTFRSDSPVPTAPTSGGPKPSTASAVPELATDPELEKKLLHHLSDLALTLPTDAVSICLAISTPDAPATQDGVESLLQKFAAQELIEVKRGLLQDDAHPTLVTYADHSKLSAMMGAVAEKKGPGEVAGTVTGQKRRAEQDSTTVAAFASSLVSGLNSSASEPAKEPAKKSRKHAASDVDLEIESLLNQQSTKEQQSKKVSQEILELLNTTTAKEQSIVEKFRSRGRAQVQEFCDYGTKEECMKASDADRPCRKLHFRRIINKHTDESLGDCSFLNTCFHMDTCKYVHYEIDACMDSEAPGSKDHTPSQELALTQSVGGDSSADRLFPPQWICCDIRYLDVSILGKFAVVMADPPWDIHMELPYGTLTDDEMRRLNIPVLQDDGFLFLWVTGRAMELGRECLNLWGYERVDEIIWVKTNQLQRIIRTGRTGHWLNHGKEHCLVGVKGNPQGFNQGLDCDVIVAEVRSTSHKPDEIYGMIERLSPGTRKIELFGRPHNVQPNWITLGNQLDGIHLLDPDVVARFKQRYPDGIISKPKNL
Sequence (Q9HCE5 whole entry partner, species assumed): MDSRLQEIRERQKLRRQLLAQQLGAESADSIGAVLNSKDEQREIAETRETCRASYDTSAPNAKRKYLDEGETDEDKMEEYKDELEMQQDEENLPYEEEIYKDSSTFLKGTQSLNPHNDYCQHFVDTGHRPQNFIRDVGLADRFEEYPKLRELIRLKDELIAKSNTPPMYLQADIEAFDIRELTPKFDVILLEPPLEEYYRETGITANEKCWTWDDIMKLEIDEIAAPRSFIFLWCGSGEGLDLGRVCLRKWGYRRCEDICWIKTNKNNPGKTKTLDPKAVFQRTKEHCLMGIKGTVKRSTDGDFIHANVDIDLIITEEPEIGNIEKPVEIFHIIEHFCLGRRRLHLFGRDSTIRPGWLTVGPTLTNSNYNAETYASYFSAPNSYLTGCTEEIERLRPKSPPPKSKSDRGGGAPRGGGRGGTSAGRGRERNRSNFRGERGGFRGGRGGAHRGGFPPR
property: IC50

Some solved entries appear below for comparison.
Nc1ncnc2c1ccn2-c1cncc(COc2ccc3c(=O)cc[nH]c3c2)c1 ... > 1000 nM
CCc1cc(N2CCC2)nc2cc(F)cc(OCc3cncc(-n4cc(C5CCCO5)c5c(N)ncnc54)c3)c12 (centres unmarked) ... > 1000 nM
CNc1ccc2ccc(OCc3cncc(-n4cc(Cl)c5c(N)ncnc54)n3)cc2n1 ... < 10 nM
Cn1ccc(-c2cn(-c3cncc(COc4ccc5ccc(N6CC(N)C6)nc5c4)c3)c3ncnc(N)c23)n1 ... < 10 nM
CNc1ccc2ccc(CCc3cncc(-n4cc(C5CCCC5)c5c(N)ncnc54)n3)cc2n1 ... < 10 nM

Please state IC50 for every molecule in the list that follows.
1. Cn1ccc(-c2cn(-c3cncc(COc4ccc(CN5CCC(CO)CC5)c(N)c4)c3)c3ncnc(N)c23)n1
2. C=CC(=O)Nc1nc(N)c2ccn(-c3cncc(COc4ccc5ccc(NC)nc5c4)c3)c2n1
3. Nc1ncnc2c1c(C1CCCO1)cn2-c1cncc(COc2cnc3ccc(N4CCC4)nc3c2)c1 (centres unmarked)

Return:
1: 100 to 1000 nM; 2: > 1000 nM; 3: > 1000 nM

====

target: METTL3/METTL14 (Homo sapiens, UniProt Q86U44); test: METTL3-14 standard enzyme assay (3H-SAM flashplate scintillation); settings: METTL3/METTL14 2.5 nM, RNA 100 nM, 3H-SAM 100 nM, 30 min
pIC50: −log10 of the molar value.
Answer each item with its documented pIC50.

Some solved entries appear below for comparison.
Cc1cc(NCCN(C)CCCCCc2ccccc2)c2ccc(OCc3cncc(-n4ccc5c(N)ncnc54)c3)cc2n1 [Compound I-103] ... 7.00 to 8.00
CCCC(=O)c1cn(-c2cncc(COc3ccc4ccc(NC)nc4c3)c2)c2ncnc(N)c12 [Compound I-96] ... 7.00 to 8.00
CCc1ncc(-n2cc(Cl)c3c(N)ncnc32)cc1COc1ccc2ccc(NC)nc2c1 [Compound I-68] ... 7.00 to 8.00

Please state pIC50 for every compound in the list that follows.
1. CNc1ccc2ccc(CCc3cncc(-n4cc(F)c5c(N)ncnc54)c3)cc2n1 [Compound I-116]
2. Cn1ccc(-c2cn(-c3cncc(COc4ccc(C(=O)N5CCNCC5)c(N)c4)c3)c3ncnc(N)c23)n1 [Compound I-176]

Return:
["> 8.00", "6.00 to 7.00"]

====

Target: METTL16 (Homo sapiens)
Sequence (Q86W50 1-562): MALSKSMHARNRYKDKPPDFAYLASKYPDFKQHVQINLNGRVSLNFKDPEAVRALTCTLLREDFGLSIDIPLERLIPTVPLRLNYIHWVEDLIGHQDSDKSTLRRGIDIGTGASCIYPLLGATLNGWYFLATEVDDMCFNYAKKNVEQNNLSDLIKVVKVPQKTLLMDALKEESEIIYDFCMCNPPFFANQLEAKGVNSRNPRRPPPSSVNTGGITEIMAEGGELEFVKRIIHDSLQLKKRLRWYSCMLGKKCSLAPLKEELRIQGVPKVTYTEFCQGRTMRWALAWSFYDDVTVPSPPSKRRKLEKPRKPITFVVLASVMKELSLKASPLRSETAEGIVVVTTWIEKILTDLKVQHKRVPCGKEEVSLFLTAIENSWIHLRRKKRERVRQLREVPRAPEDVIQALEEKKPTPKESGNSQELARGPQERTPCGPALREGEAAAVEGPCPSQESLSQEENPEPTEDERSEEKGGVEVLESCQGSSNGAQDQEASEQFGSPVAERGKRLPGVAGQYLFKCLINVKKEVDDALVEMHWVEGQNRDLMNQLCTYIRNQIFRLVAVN
Answer each item with its documented IC50.

CNc1ccc2ccc(OCc3cncc(-n4c(C)cc5c(N)ncnc54)c3)cc2n1 ... > 1000 nM
CNc1ccc2ccc(OCc3cncc(-n4cc(-c5ncco5)c5c(N)ncnc54)c3)cc2n1 ... > 1000 nM
CNc1ccc2ccc(CNc3cccc(-n4cc(Br)c5c(N)ncnc54)c3)cc2n1 ... > 1000 nM

Please state IC50 for every compound in the list that follows.
1. CNc1ccc2ccc(OCc3cc(-n4cc(Cl)c5c(N)ncnc54)cnc3N)cc2n1
2. CNc1ccc2ccc(OCc3cccc(-n4cc(Cl)c5c(N)ncnc54)c3)cc2n1
3. Cn1ccc(-c2cn(-c3cncc(CCc4ccc5ccc(N)nc5c4)c3)c3ncnc(N)c23)n1
4. CNc1ccc2ccc(CCc3cncc(-n4cc(C5CCCC5)c5c(N)ncnc54)n3)cc2n1

Return:
> 1000 nM
> 1000 nM
> 1000 nM
> 1000 nM

Please state IC50 for every compound in the list that follows.
1. CNc1ccc2ccc(OCc3cc(-n4cc(Cl)c5c(N)ncnc54)ncn3)cc2n1
2. CNc1ccc2ccc(OCc3cncc(-n4cc([C@@H]5CCCO5)c5c(N)ncnc54)c3)cc2n1

Return:
1: > 1000 nM; 2: > 1000 nM
